Quick list: MIC per entry.
Tested on: Enterococcus faecalis
experiment_summary: Antimicrobial activity against vancomycin-resistant Enterococcus faecalis NCTC-12201 by serial dilution method
Format: functional
readout_name: MIC (µg/mL)

INSERT INTO measurements (smiles_str, reported) VALUES
  ('CC[C@H]1OC(=O)[C@H](C)[C@@H](O[C@H]2C[C@@](C)(OC)[C@@H](OC=O)[C@H](C)O2)[C@H](C)[C@@H](O[C@@H]2O[C@H](C)C[C@H](N(C)C)[C@H]2OC(C)=O)[C@@]2(C)CC(C)=C(O2)[C@H](C)[C@@H](OC(=O)C(C)C)[C@]1(C)OC(=O)C(C)C', 32),
  ('CC[C@H]1OC(=O)[C@H](C)[C@@H](OCc2cn(-c3cccnc3)nn2)[C@H](C)[C@@H](O[C@@H]2O[C@H](C)C[C@H](N(C)C)[C@H]2O)[C@@]2(C)CC(C)=C(O2)[C@H](C)[C@@H](OC(=O)C(C)C)[C@]1(C)OC(=O)C(C)C', 32);

---

Test system: Staphylococcus aureus
experiment_summary: Antimicrobial activity against Staphylococcus aureus Smith by serial dilution method
Type: functional
readout_name: MIC (µg/mL)

INSERT INTO assay_data (smiles_str, test_target, reading_qualifier, reported) VALUES
  ('CC[C@H]1OC(=O)[C@H](C)[C@@H](OCc2cn(CC(=O)OCc3ccccc3)nn2)[C@H](C)[C@@H](O[C@@H]2O[C@H](C)C[C@H](N(C)C)[C@H]2O)[C@@]2(C)CC(C)=C(O2)[C@H](C)[C@@H](OC(=O)C(C)C)[C@]1(C)OC(=O)C(C)C', 'Staphylococcus aureus', '=', 128),
  ('CC[C@H]1OC(=O)[C@H](C)[C@@H](O[C@H]2C[C@@](C)(OC)[C@@H](OC=O)[C@H](C)O2)[C@H](C)[C@@H](O[C@@H]2O[C@H](C)C[C@H](N(C)C)[C@H]2OC(C)=O)[C@@]2(C)CC(C)=C(O2)[C@H](C)[C@@H](OC(=O)C(C)C)[C@]1(C)OC(=O)C(C)C', 'Staphylococcus aureus', '=', 16),
  ('CC[C@H]1OC(=O)[C@H](C)[C@@H](OCc2cn(C34CC5CC(CC(C5)C3)C4)nn2)[C@H](C)[C@@H](O[C@@H]2O[C@H](C)C[C@H](N(C)C)[C@H]2O)[C@@]2(C)CC(C)=C(O2)[C@H](C)[C@@H](OC(=O)C(C)C)[C@]1(C)OC(=O)C(C)C', 'Staphylococcus aureus', '=', 16),
  ('CC[C@H]1OC(=O)[C@H](C)[C@@H](OCc2cn(-c3cccnc3)nn2)[C@H](C)[C@@H](O[C@@H]2O[C@H](C)C[C@H](N(C)C)[C@H]2O)[C@@]2(C)CC(C)=C(O2)[C@H](C)[C@@H](OC(=O)C(C)C)[C@]1(C)OC(=O)C(C)C', 'Staphylococcus aureus', '=', 64),
  ('CC[C@H]1OC(=O)[C@H](C)[C@@H](OCc2cn(-c3cnc4ccccc4c3)nn2)[C@H](C)[C@@H](O[C@@H]2O[C@H](C)C[C@H](N(C)C)[C@H]2O)[C@@]2(C)CC(C)=C(O2)[C@H](C)[C@@H](OC(=O)C(C)C)[C@]1(C)OC(=O)C(C)C', 'Staphylococcus aureus', '=', 32),
  ('CC[C@H]1OC(=O)[C@H](C)[C@@H](O[C@H]2C[C@@](C)(OC)[C@@H](O)[C@H](C)O2)[C@H](C)[C@@H](O[C@@H]2O[C@H](C)C[C@H](N(C)C)[C@H]2O)[C@](C)(O)C[C@@H](C)C(=O)[C@H](C)[C@@H](O)[C@]1(C)O', 'Staphylococcus aureus', '≤', 0.5),
  ('CC[C@H]1OC(=O)[C@H](C)[C@@H](OCc2cn(CSc3ccccc3)nn2)[C@H](C)[C@@H](O[C@@H]2O[C@H](C)C[C@H](N(C)C)[C@H]2O)[C@@]2(C)CC(C)=C(O2)[C@H](C)[C@@H](OC(=O)C(C)C)[C@]1(C)OC(=O)C(C)C', 'Staphylococcus aureus', '=', 32),
  ('CC[C@H]1OC(=O)[C@H](C)[C@@H](OCc2cn(CC(=O)O)nn2)[C@H](C)[C@@H](O[C@@H]2O[C@H](C)C[C@H](N(C)C)[C@H]2O)[C@@]2(C)CC(C)=C(O2)[C@H](C)[C@@H](OC(=O)C(C)C)[C@]1(C)OC(=O)C(C)C', 'Staphylococcus aureus', '>', 128),
  ('CC[C@H]1OC(=O)[C@H](C)[C@@H](OCc2cn(CCO)nn2)[C@H](C)[C@@H](O[C@@H]2O[C@H](C)C[C@H](N(C)C)[C@H]2O)[C@@]2(C)CC(C)=C(O2)[C@H](C)[C@@H](OC(=O)C(C)C)[C@]1(C)OC(=O)C(C)C', 'Staphylococcus aureus', '>', 128),
  ('CC[C@H]1OC(=O)[C@H](C)[C@@H](O[C@H]2C[C@@](C)(OC)[C@@H](O)[C@H](C)O2)[C@H](C)[C@@H](O[C@@H]2O[C@H](C)C[C@H](N(C)C)[C@H]2O)[C@@]2(C)CC(C)=C(O2)[C@H](C)[C@@H](OC(=O)C(C)C)[C@]1(C)OC(=O)C(C)C', 'Staphylococcus aureus', '=', 16),
  ('CC[C@H]1OC(=O)[C@H](C)[C@@H](OCc2cn(CC(=O)Nc3ccccn3)nn2)[C@H](C)[C@@H](O[C@@H]2O[C@H](C)C[C@H](N(C)C)[C@H]2O)[C@@]2(C)CC(C)=C(O2)[C@H](C)[C@@H](OC(=O)C(C)C)[C@]1(C)OC(=O)C(C)C', 'Staphylococcus aureus', '=', 32),
  ('CC[C@H]1OC(=O)[C@H](C)[C@@H](OCc2cn(Cc3ccccc3)nn2)[C@H](C)[C@@H](O[C@@H]2O[C@H](C)C[C@H](N(C)C)[C@H]2O)[C@@]2(C)CC(C)=C(O2)[C@H](C)[C@@H](OC(=O)C(C)C)[C@]1(C)OC(=O)C(C)C', 'Staphylococcus aureus', '=', 32),
  ('C#CCO[C@H]1[C@H](C)[C@@H](O[C@@H]2O[C@H](C)C[C@H](N(C)C)[C@H]2O)[C@@]2(C)CC(C)=C(O2)[C@H](C)[C@@H](OC(=O)C(C)C)[C@](C)(OC(=O)C(C)C)[C@@H](CC)OC(=O)[C@@H]1C', 'Staphylococcus aureus', '=', 32),
  ('CC[C@H]1OC(=O)[C@H](C)[C@@H](OCc2cn(-c3cccc4ccccc34)nn2)[C@H](C)[C@@H](O[C@@H]2O[C@H](C)C[C@H](N(C)C)[C@H]2O)[C@@]2(C)CC(C)=C(O2)[C@H](C)[C@@H](OC(=O)C(C)C)[C@]1(C)OC(=O)C(C)C', 'Staphylococcus aureus', '=', 64),
  ('CC[C@H]1OC(=O)[C@H](C)[C@@H](O)[C@H](C)[C@@H](O[C@@H]2O[C@H](C)C[C@H](N(C)C)[C@H]2OC(C)=O)[C@@]2(C)CC(C)=C(O2)[C@H](C)[C@@H](OC(=O)C(C)C)[C@]1(C)OC(=O)C(C)C', 'Staphylococcus aureus', '>', 128);

---

System: Enterococcus faecalis
experiment_summary: Antimicrobial activity against vancomycin-resistant Enterococcus faecalis NCTC-12201 by serial dilution method
Type: functional
Quick list: MIC per entry.
readout_name: MIC (µg/mL)

INSERT INTO results (smiles_str, readout_name, reading_qualifier, reported) VALUES
  ('CC[C@H]1OC(=O)[C@H](C)[C@@H](O[C@H]2C[C@@](C)(OC)[C@@H](O)[C@H](C)O2)[C@H](C)[C@@H](O[C@@H]2O[C@H](C)C[C@H](N(C)C)[C@H]2O)[C@@]2(C)CC(C)=C(O2)[C@H](C)[C@@H](OC(=O)C(C)C)[C@]1(C)OC(=O)C(C)C', 'MIC', '=', 64),
  ('CC[C@H]1OC(=O)[C@H](C)[C@@H](OCc2cn(CC(=O)O)nn2)[C@H](C)[C@@H](O[C@@H]2O[C@H](C)C[C@H](N(C)C)[C@H]2O)[C@@]2(C)CC(C)=C(O2)[C@H](C)[C@@H](OC(=O)C(C)C)[C@]1(C)OC(=O)C(C)C', 'MIC', '>', 128),
  ('CC[C@H]1OC(=O)[C@H](C)[C@@H](OCc2cn(-c3cccc4ccccc34)nn2)[C@H](C)[C@@H](O[C@@H]2O[C@H](C)C[C@H](N(C)C)[C@H]2O)[C@@]2(C)CC(C)=C(O2)[C@H](C)[C@@H](OC(=O)C(C)C)[C@]1(C)OC(=O)C(C)C', 'MIC', '=', 32),
  ('CC[C@H]1OC(=O)[C@H](C)[C@@H](OCc2cn(CCO)nn2)[C@H](C)[C@@H](O[C@@H]2O[C@H](C)C[C@H](N(C)C)[C@H]2O)[C@@]2(C)CC(C)=C(O2)[C@H](C)[C@@H](OC(=O)C(C)C)[C@]1(C)OC(=O)C(C)C', 'MIC', '=', 128);
